Entry source: patent EP0309789A1

experiment.notes: Serum levels in monkeys after oral dosing
Assay type: in vivo
condition.parameters: monkey, 25 mg/kg oral dosing
measure: half-life (h)
Just the number in h, nothing appended.

> print(dat)
                                chem.smiles    measure  reading.unit  assay.value
1  Cc1cc(-c2cc3c(cc2F)c(=O)c(C(=O)O)cn3C2CC2)cc(C)n1  half-life             h           13

For the molecule Cc1cc(-c2c(F)cc3c(=O)c(C(=O)O)cn(C4CC4)c3c2F)cc(C)n1 , give its measured half-life value.
20
